assay: in vitro; settings: human, Chang Liver cells (normal liver cell line)
quantityMeasured: IC50

Cc1cnc(Nc2ccccc2)s1 : > 100 µM

In: Need IC50 of "Cc1cnc(N)s1" , thanks.
Out: > 100 µM

In: Also "COc1ccc(Nc2nccs2)cc1" , if possible.
Out: > 100 µM

Measured values drawn from paper PMC8305974 for this set.
